PROTOCOL DETAILS: Ratio of drug level in S180 tumor to muscleKM mouse at 240 to 370 kBq, iv after 30 mins
Format: ADME, organism-based, KM
CONDITION PARAMETERS: in vivo, 0.5 h
RESULT TYPE: tumor/muscle ratio

SMILES RECORD	ASSAY VALUE
OC[C@H]1O[C@@H](O)[C@H]([18F])[C@@H](O)[C@@H]1O	1.75
CC(C)[C@H](NC(=O)c1ccc([N+](=O)[O-])cc1[18F])C(=O)O	2.62
COC(=O)[C@@H](NC(=O)c1ccc([N+](=O)[O-])cc1[18F])C(C)C	2.41
